meta.source: patent US4933104A

- protocol: negative dichroism S in a liquid-crystalline mixture
- Assay type: physicochemical
- test_parameters: liquid-crystalline mixture ZK-807
metric: negative dichroism S
Response field accepts a number only; no unit should be typed.

Past entries and their recorded results:
compound_structure: CCCCCCc1ccc(C(=O)Nc2cc(CCCC)c(OC(=O)c3ccc(CCCCCC)cc3)c3c2C(=O)c2c(NC(=O)c4ccc(CCCCCC)cc4)cc(CCCC)c(OC(=O)c4ccc(CCCCCC)cc4)c2C3=O)cc1
negative dichroism S: -0.26
//
compound_structure: CCCCC[C@H]1CC[C@H](c2ccc(C(=O)Nc3ccc(O)c4c3C(=O)c3c(NC(=O)c5ccc([C@H]6CC[C@H](CCCCC)CC6)cc5)cc(C)c(O)c3C4=O)cc2)CC1
negative dichroism S: -0.33

Reported negative dichroism S for CCCCCc1cc(NC(=O)c2ccc(CCCC)cc2)c2c(c1O)C(=O)c1c(OC(=O)c3ccc(CCCC)cc3)c(CCCCC)cc(NC(=O)c3ccc(CCCC)cc3)c1C2=O : what is it?
-0.30

---

Each entry below carries its recorded Solubility (limiting).
- protocol: limiting solubility in liquid-crystalline mixtures at 20° C.
- Type: physicochemical
- test_parameters: SP-586, 20° C.
Please respond with the number in mass % and leave the unit unwritten.

Past entries and their recorded results:
compound: CCCCCC1CCC(c2ccc(C(=O)Nc3ccc(OC(=O)c4ccc(C5CCC(CCCCC)CC5)cc4)c4c3C(=O)c3c(NC(=O)c5ccc(C6CCC(CCCCC)CC6)cc5)cc(C)c(OC(=O)c5ccc(C6CCC(CCCCC)CC6)cc5)c3C4=O)cc2)CC1 (stereo not drawn) [Compound 4]
metric: Solubility (limiting)
u: mass %
value_measured: 1.9
--
compound: CCCCCc1cc(NC(=O)c2ccc(CCCC)cc2)c2c(c1OC(=O)c1ccc(CCCC)cc1)C(=O)c1c(OC(=O)c3ccc(CCCC)cc3)c(CCCCC)cc(NC(=O)c3ccc(CCCC)cc3)c1C2=O [Compound 14]
metric: Solubility (limiting)
u: mass %
value_measured: 3.78

// next item, Solubility (limiting) requested
Reported Solubility (limiting) for CCCCc1ccc(C(=O)Nc2cc(CCCC)c(OC(=O)c3ccc(CCCC)cc3)c3c2C(=O)c2c(NC(=O)c4ccc(CCCC)cc4)cc(CCCC)c(OC(=O)c4ccc(CCCC)cc4)c2C3=O)cc1 [Compound 6] : what is it?
4.0

---

- protocol: limiting solubility in liquid-crystalline mixtures at 20° C.
- Assay type: physicochemical
- test_parameters: ZLI-1840, 20° C.
metric: Solubility (limiting) (mass %)
Please respond with the number in mass % and leave the unit unwritten.

compound: CCCCCC1CCC(c2ccc(C(=O)Nc3cc(CCCC)c(OC(=O)C4CCC(CCCC)CC4)c4c3C(=O)c3c(NC(=O)c5ccc(C6CCC(CCCCC)CC6)cc5)cc(CCCC)c(OC(=O)C5CCC(CCCC)CC5)c3C4=O)cc2)CC1 (centres unmarked) [Compound 9]
Solubility (limiting) (mass %): 7.7

compound: CCCCCC1CCC(c2ccc(C(=O)Nc3cc(CCCC)c(O)c4c3C(=O)c3c(NC(=O)c5ccc(C6CCC(CCCCC)CC6)cc5)cc(CCCC)c(OC(=O)c5ccc(C6CCC(CCCCC)CC6)cc5)c3C4=O)cc2)CC1 (centres unmarked) [Compound 19]
Solubility (limiting) (mass %): 2.5

compound: CCCCc1cc(NC(=O)c2ccc(C3CCC(CCCC)CC3)cc2)c2c(c1O)C(=O)c1c(OC(=O)CCC)c(CCCC)cc(NC(=O)c3ccc(C4CCC(CCCC)CC4)cc3)c1C2=O (centres unmarked) [Compound 23]
Solubility (limiting) (mass %): 2.6

compound: CCCCCCc1ccc(C(=O)Nc2cc(CCCCC)c(O)c3c2C(=O)c2c(NC(=O)c4ccc(CCCCCC)cc4)cc(CCCCC)c(OC(=O)c4ccc(CCCCCC)cc4)c2C3=O)cc1 [Compound 26]
Solubility (limiting) (mass %): 1.1

compound: CCCCCC1CCC(c2ccc(C(=O)Nc3cc(CCCC)c(O)c4c3C(=O)c3c(NC(=O)c5ccc(C6CCC(CCCCC)CC6)cc5)cc(CCCC)c(OC(=O)CCC)c3C4=O)cc2)CC1 (centres unmarked) [Compound 22]
Solubility (limiting) (mass %): 1.4

compound: CCCCc1cc(NC(=O)C2CCC(CCCC)CC2)c2c(c1OC(=O)c1ccc(C3CCC(CCCC)CC3)cc1)C(=O)c1c(OC(=O)c3ccc(C4CCC(CCCC)CC4)cc3)c(CCCC)cc(NC(=O)C3CCC(CCCC)CC3)c1C2=O (centres unmarked) [Compound 10]
Solubility (limiting) (mass %): 7.2

compound: CCCCCC1CCC(c2ccc(C(=O)Nc3cc(CCCC)c(OC(=O)c4ccc(C5CCC(CCCCC)CC5)cc4)c4c3C(=O)c3c(NC(=O)c5ccc(C6CCC(CCCCC)CC6)cc5)cc(CCCC)c(OC(=O)c5ccc(C6CCC(CCCCC)CC6)cc5)c3C4=O)cc2)CC1 (centres unmarked) [Compound 8]
Solubility (limiting) (mass %): 5.7

// next item, Solubility (limiting) requested
Reported Solubility (limiting) for CCCCC[C@H]1CC[C@H](c2ccc(C(=O)Nc3cc(CCCC)c(O)c4c3C(=O)c3c(NC(=O)c5ccc([C@H]6CC[C@H](CCCCC)CC6)cc5)cc(CCCC)c(O)c3C4=O)cc2)CC1 [Compound 29] : what is it?
1.0
